# assay-target: human DR5 (human)
# test: SPR (BIAcore X100), human DR5 on CM5 chip, IgG injected, 1:1 Langmuir model
attribute-measured: Kd (pM)
Entry rule: numbers only, all in pM.

A selection of reference data follows.
binder | number
DA12 (antibody, V domains shown) VH: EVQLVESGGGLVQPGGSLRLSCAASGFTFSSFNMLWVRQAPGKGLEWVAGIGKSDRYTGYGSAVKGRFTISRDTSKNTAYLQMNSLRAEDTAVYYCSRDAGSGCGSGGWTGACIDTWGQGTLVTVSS VL: DIQMTQSPSSLSASVGDRVTITCSGGDSYAGSYYYGWYQQKPGKAPKTLIYNNNNLMPGVPSRFSGSRSGTDFTLTISSLQPEDFATYYCGSRDSSYVGIFGQGTKVEIK | 12.7
DA17 (antibody, V domains shown) VH: EVQLVESGGGLVQPGGSLRLSCAASGFTFSSFNMLWVRQAPGKGLEWVAGIGKSDRYTGYGSAVKGRFTISRDDSKSTVYLQMNSLRAEDTAVYYCVRDAGSGCGSGGWTGACIDTWGQGTLVTVSS VL: DIQMTQSPSSLSASVGDRVTITCSGGDSYAGSYYYGWYQQKPGKAPKTLIYNNNNKAKGVPSRFSGSRSGTDFTLTISSLQPEDFATYYCGSRDSSYVGIFGQGTKVEIK | 23.5
DA30 (antibody, V domains shown) VH: AVTLDESGGGLQTPGGGLSLVCKGSGFTFSSFNMLWVRQAPGKGLEWVAGIGKSDRYTGYGSAVKGRATISRDDGQSTAYLQMNSLRAEDTGTYYCVKDAGSGCGSGGWTGACIDTWGHGTEVIVSS VL: LTQPSSVSANLGGTVEITCSGGDSYAGSYYYGWYQQKAPGSAPVTVIYNNNNRPSNIPSRFSGSTSGSTATLTITGVQAEDEATYYCGSRDSSYVGIFGAGTTLTVL | 77.4
DA16 (antibody, V domains shown) VH: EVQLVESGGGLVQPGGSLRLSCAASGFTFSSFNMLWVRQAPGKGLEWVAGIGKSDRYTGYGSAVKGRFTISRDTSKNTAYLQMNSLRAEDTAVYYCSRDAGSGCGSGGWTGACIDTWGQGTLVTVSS VL: DIQMTQSPSSLSASVGDRVTITCSGGDSYAGSYYYGWYQQKPGKAPKTLIYNNNNRPSGVPSRFSGSRSGTDFTLTISSLQPEDFATYYCGSRDSSGAGGFGQGTKVEIK | 26.1

// query Identify Kd associated with the binder DA28 (antibody, V domains shown) VH: AVTLDESGGGLQTPGGGLSLVCKGSGFTFSSFNMLWVRQAPGKGLEWVAGIGKSDRYTGYGSAVKGRATISRDDGQSTARLQLNNLRAEDTGTYYCVKDAGSGCGSGGWTGACIDTWGHGTEVIVSS VL: LTQPSSVSANLGGTVEITCSGGDSYAGSYYYGWYQQKAPGSAPVTVIYNNNNRPSNIPSRFSGSTSGSTATLTITGVQAEDEAVYFCGSRDSSYVGIFGAGTTLTVL
// result 3.89

Hello, the source for this data is patent US20230133381A1, in case you need it.
